Source listed as the supplement of paper PMC9233669.

- Tested on: biotinyl-Met-oxazolone
- experiment description: self-aminoacylation, catalytic enhancement (BMO) (fold over background); higher = more active; k-Seq, kA / k0A0; sequences stand for … in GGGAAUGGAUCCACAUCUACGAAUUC…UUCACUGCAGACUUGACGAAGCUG
Fewer inactive variants are shown than the library holds.
readout name: self-aminoacylation

Use the examples below as a reference point.
INSERT INTO measurements (biosequence, result) VALUES
  ('CGACACUUCAAGCAGUCGGUC [Fam1B.1 aminoacylation ribozyme variant]', 1.64),
  ('CUACACUUCAAGCAAUAGGUC [Fam1B.1 aminoacylation ribozyme variant]', 0.44),
  ('AAGUUUGCUAAUAUUAGCAAG [Fam3.1 aminoacylation ribozyme variant]', 1.32),
  ('CUACUUCAGACAAUGGGUCUG [Fam1A.1 aminoacylation ribozyme variant]', 0.798),
  ('CUAGUUCAAACAAUGGGUCUG [Fam1A.1 aminoacylation ribozyme variant]', 1.1);

Data request: Any idea what self-aminoacylation was measured for CUACUUGAAACAAUCUGUCUG [Fam1A.1 aminoacylation ribozyme variant] ?
Data returned: 0.747

Data request: Do the same for CCUCACUCCAAGCAAUCGGUC [Fam1B.1 aminoacylation ribozyme variant] please
Data returned: 0.767

Data request: Please do the same for AUUACCCUGGUAAUCCAGUGA [Fam2.1 aminoacylation ribozyme variant] as well.
Data returned: 8.47

----------
- Tested on: biotinyl-Ile-oxazolone
- experiment description: self-aminoacylation, catalytic enhancement (BIO) (fold over background); higher = more active; k-Seq, kA / k0A0; sequences stand for … in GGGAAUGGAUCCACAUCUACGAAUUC…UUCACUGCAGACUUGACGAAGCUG
Fewer inactive variants are shown than the library holds.
readout name: self-aminoacylation
// no unit string in output, number only

Answered examples (4):
INSERT INTO assay_data (biosequence, system_under_test, readout_name, quantitative_readout) VALUES
  ('AUUCACCCAGGUCAACGGGUG [Fam2.2 aminoacylation ribozyme variant]', 'biotinyl-Ile-oxazolone', 'self-aminoacylation', 1.96),
  ('AUUCACCUAGGUUAUAGGGUG [Fam2.2 aminoacylation ribozyme variant]', 'biotinyl-Ile-oxazolone', 'self-aminoacylation', 2.23),
  ('UUUCACCUAUGUCAUCGGGUG [Fam2.2 aminoacylation ribozyme variant]', 'biotinyl-Ile-oxazolone', 'self-aminoacylation', 3.35),
  ('AUUACCCUGGUCAUCUAAUGA [Fam2.1 aminoacylation ribozyme variant]', 'biotinyl-Ile-oxazolone', 'self-aminoacylation', 0.967);

Consider the record given below.
Data request: What value of self-aminoacylation has been recorded for this entry: AUUCCCCCAGGUCAUCGGGUG [Fam2.2 aminoacylation ribozyme variant]
Data returned: 14

----------
- System: biotinyl-Phe-oxazolone
- experiment description: self-aminoacylation, catalytic enhancement (BFO) (fold over background); higher = more active; k-Seq, kA / k0A0; sequences stand for … in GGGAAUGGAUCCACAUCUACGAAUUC…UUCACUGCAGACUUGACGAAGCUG
This sample holds only a part of the variants without activity.
readout name: self-aminoacylation
The reply should be a number, written without any unit.

INSERT INTO assay_data (biosequence, readout_name, quantitative_readout) VALUES
  ('AAGUUUGCUAAUAGUGGCAAA [Fam3.1 aminoacylation ribozyme variant]', 'self-aminoacylation', 0.91),
  ('CUACUUCAAGCAAUCAGUCUG [Fam1A.1 aminoacylation ribozyme variant]', 'self-aminoacylation', 5.21),
  ('CCACACUUCAAGCAAUCAGCC [Fam1B.1 aminoacylation ribozyme variant]', 'self-aminoacylation', 3.01);

Data request: Recorded self-aminoacylation for AUUACCCUGGUCAUCGCGUGU [Fam2.1 aminoacylation ribozyme variant] , please?
Data returned: 51.7
